- target_under_test: SIRT1 (Homo sapiens, UniProt Q96EB6)
- method_notes: Mass spectrometry based SIRT1 deacetylation assay (activation)
- Format: biochemical
- experimental_context: 10 nM SIRT1, 0.5 μM peptide substrate, 120 μM βNAD+, 25 min at 25° C.
endpoint_label: EC1.5 (concentration of test compound that results in 150% activation of SIRT1)

# smiles_code, result
measured = [
    ("O=C(Nc1nc(CN2CCOCC2)cs1)c1cccc2ccc(-c3cccnc3)nc12", "A (EC1.5<1.0 uM)"),
    ("O=C(Nc1cccc2ccc(-c3ccccc3OC(F)(F)F)nc12)c1cscn1", "A (EC1.5<1.0 uM)"),
    ("O=C(Nc1ccc(CN2CCOCC2)cc1)c1cccc2ccc(-c3cccc(C(F)F)c3)nc12", "A (EC1.5<1.0 uM)"),
]

====

- target_under_test: SIRT1 (Homo sapiens, UniProt Q96EB6)
- Sequence (Q96EB6 1-747): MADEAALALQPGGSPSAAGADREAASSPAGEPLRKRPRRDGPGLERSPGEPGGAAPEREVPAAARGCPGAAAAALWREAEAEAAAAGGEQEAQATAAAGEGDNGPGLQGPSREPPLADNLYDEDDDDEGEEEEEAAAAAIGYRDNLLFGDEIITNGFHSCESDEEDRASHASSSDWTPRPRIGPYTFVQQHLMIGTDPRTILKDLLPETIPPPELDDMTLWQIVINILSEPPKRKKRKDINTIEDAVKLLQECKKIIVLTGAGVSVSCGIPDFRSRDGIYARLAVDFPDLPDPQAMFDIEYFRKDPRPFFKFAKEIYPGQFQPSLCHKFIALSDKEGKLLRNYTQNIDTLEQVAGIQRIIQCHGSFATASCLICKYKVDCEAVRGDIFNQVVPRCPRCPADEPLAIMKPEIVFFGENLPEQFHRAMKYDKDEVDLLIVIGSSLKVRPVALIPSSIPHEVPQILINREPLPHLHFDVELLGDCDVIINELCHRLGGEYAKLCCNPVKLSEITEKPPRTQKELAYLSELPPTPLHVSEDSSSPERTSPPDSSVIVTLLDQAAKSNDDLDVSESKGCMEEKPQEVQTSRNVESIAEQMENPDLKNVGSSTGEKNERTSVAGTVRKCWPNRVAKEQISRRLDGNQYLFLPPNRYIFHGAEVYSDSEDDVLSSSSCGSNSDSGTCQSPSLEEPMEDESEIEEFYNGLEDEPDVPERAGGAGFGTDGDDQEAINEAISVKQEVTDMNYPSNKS
- method_notes: Mass spectrometry based SIRT1 deacetylation assay (activation)
- Format: biochemical
- experimental_context: 10 nM SIRT1, 0.5 μM peptide substrate, 120 μM βNAD+, 25 min at 25° C.
endpoint_label: EC1.5 (concentration of test compound that results in 150% activation of SIRT1)

# molecule, result
records = [
    ("O=C(Nc1ncc(CN2CCCC2)s1)c1cccc2ccc(-c3cccc(C(F)(F)F)c3)nc12 [Compound 219]", "A (EC1.5<1.0 uM)"),
    ("O=C(Nc1ccc(CN2CCCC2)cn1)c1cccc2ccc(-c3cccc(C(F)(F)F)c3)nc12 [Compound 285]", "A (EC1.5<1.0 uM)"),
    ("Cc1cncc(-c2ccc3cccc(NC(=O)c4cscn4)c3n2)c1 [Compound 214]", "A (EC1.5<1.0 uM)"),
    ("CS(=O)(=O)c1ccccc1-c1ccc2cccc(NC(=O)c3cscn3)c2n1 [Compound 93]", "A (EC1.5<1.0 uM)"),
    ("O=C(Nc1cccc2ccc(-c3cccc(CN4CCCC4)c3)nc12)c1cscn1 [Compound 119]", "A (EC1.5<1.0 uM)"),
    ("Cc1csc(NC(=O)c2cccc3cnc(-c4cccc(C(F)(F)F)c4)nc23)n1 [Compound 281]", "B (EC1.5 1-25 uM)"),
    ("FC(F)(F)c1cccc(-c2ccc3cccc(CNC4CCOCC4)c3n2)c1 [Compound 144]", "C (EC1.5>25 uM)"),
    ("c1cncc(CNc2cccc3ccc(-c4ccncc4)nc23)c1 [Compound 146]", "C (EC1.5>25 uM)"),
    ("O=C(Nc1cccc2ccc(-c3cc(F)cc(C(F)(F)F)c3)nc12)c1cscn1 [Compound 169]", "C (EC1.5>25 uM)"),
    ("O=C(O)c1csc(NC(=O)c2cccc3ccc(-c4cccc(C(F)(F)F)c4)nc23)n1 [Compound 101]", "B (EC1.5 1-25 uM)"),
    ("O=C(NCc1cccnc1)c1cccc2ccc(-c3cccc(OC4CCNCC4)c3)nc12 [Compound 95]", "B (EC1.5 1-25 uM)"),
    ("O=S(=O)(Nc1cccc2ccc(-c3cccc(C(F)(F)F)c3)nc12)c1ccccn1 [Compound 273]", "C (EC1.5>25 uM)"),
    ("O=C(Nc1cccc2ccc(-c3cccc(C(F)(F)F)c3)nc12)c1cocn1 [Compound 195]", "A (EC1.5<1.0 uM)"),
    ("O=C(Nc1cccnc1)c1cccc2ncc(-c3cccc(OC(F)(F)F)c3)nc12 [Compound 126]", "B (EC1.5 1-25 uM)"),
    ("O=C(Nc1ncnc2ccc(-c3cccc(C(F)(F)F)c3)nc12)c1cccnc1 [Compound 311]", "B (EC1.5 1-25 uM)"),
    ("O=C(Nc1nccs1)c1cccc2ncc(-c3cccc(OC(F)(F)F)c3)nc12 [Compound 125]", "C (EC1.5>25 uM)"),
    ("Cc1cncc(-c2ccc3cccc(C(=O)Nc4cccc(CN5CCOCC5)n4)c3n2)c1 [Compound 244]", "A (EC1.5<1.0 uM)"),
]

====

- target_under_test: SIRT1 (Homo sapiens)
- Sequence (Q96EB6 1-747): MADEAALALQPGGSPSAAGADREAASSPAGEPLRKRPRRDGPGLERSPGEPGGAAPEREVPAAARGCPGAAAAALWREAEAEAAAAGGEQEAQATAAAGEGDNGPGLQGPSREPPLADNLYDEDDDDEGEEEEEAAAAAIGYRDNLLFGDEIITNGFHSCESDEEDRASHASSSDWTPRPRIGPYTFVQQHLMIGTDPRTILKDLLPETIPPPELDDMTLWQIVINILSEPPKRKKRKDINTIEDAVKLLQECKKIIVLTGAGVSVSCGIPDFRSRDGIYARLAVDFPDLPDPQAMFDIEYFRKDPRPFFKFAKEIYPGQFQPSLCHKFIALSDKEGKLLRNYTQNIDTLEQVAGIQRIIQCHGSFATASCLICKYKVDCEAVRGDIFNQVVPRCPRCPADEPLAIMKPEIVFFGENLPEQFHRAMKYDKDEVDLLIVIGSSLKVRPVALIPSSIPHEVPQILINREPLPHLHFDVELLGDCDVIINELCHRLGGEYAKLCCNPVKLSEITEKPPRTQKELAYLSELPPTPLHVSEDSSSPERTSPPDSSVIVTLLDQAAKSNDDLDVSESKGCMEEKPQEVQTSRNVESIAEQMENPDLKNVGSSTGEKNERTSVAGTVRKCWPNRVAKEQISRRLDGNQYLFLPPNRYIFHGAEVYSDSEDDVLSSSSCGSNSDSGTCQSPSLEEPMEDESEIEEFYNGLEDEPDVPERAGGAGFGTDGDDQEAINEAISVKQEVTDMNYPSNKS
- method_notes: Mass spectrometry based SIRT1 deacetylation assay (activation)
- Format: biochemical
- experimental_context: 10 nM SIRT1, 0.5 μM peptide substrate, 120 μM βNAD+, 25 min at 25° C.
endpoint_label: EC1.5 (concentration of test compound that results in 150% activation of SIRT1)

# molecule, target_under_test, result
data = [
    ("O=C(Nc1cccc(CN2CCCC2)c1)c1cccc2ccc(-c3cccc(C(F)F)c3)nc12 [Compound 316]", "SIRT1 (Homo sapiens)", "A (EC1.5<1.0 uM)"),
    ("O=C(Nc1ncnc2ccc(-c3cccc(OC(F)(F)F)c3)nc12)c1cscn1 [Compound 301]", "SIRT1 (Homo sapiens)", "A (EC1.5<1.0 uM)"),
    ("O=C(Nc1cccc(CN2CCOCC2)n1)c1cccc2ccc(-c3cccc(C(F)F)c3)nc12 [Compound 287]", "SIRT1 (Homo sapiens)", "A (EC1.5<1.0 uM)"),
    ("O=C(Nc1nccs1)c1cccc2ccc(-c3cccc(OC(F)(F)F)c3)nc12 [Compound 14]", "SIRT1 (Homo sapiens)", "A (EC1.5<1.0 uM)"),
    ("O=C(Nc1cccnc1)c1cccc2cnc(-c3cccnc3)nc12 [Compound 297]", "SIRT1 (Homo sapiens)", "C (EC1.5>25 uM)"),
    ("O=C(Nc1cccc2ccc(-c3ccc(F)c(C(F)(F)F)c3)nc12)c1ccncc1 [Compound 161]", "SIRT1 (Homo sapiens)", "C (EC1.5>25 uM)"),
    ("Cc1cnc(NC(=O)c2cccc3ccc(-c4ccnc(C(F)F)c4)nc23)s1 [Compound 307]", "SIRT1 (Homo sapiens)", "C (EC1.5>25 uM)"),
    ("O=C(Nc1cccc(CN2CCCC2)n1)c1cccc2ccc(-c3cccc(C(F)(F)F)c3)nc12 [Compound 227]", "SIRT1 (Homo sapiens)", "A (EC1.5<1.0 uM)"),
    ("O=C(Nc1nccs1)c1cccc2ccc(-c3cccc(C(F)F)c3)nc12 [Compound 247]", "SIRT1 (Homo sapiens)", "A (EC1.5<1.0 uM)"),
    ("Cc1ccc(-c2ccc3cccc(NC(=O)c4cscn4)c3n2)cn1 [Compound 198]", "SIRT1 (Homo sapiens)", "A (EC1.5<1.0 uM)"),
    ("O=C(Nc1ccccn1)c1cccc2ccc(-c3cccc(C(F)(F)F)c3)nc12 [Compound 30]", "SIRT1 (Homo sapiens)", "A (EC1.5<1.0 uM)"),
    ("O=C(Nc1ccccn1)c1cccc2cnc(-c3cccc(N4CCOCC4)c3)nc12 [Compound 315]", "SIRT1 (Homo sapiens)", "A (EC1.5<1.0 uM)"),
    ("O=C(Nc1nc(CN2CCCC2)cs1)c1cccc2ccc(-c3cccc(C(F)(F)F)c3)nc12 [Compound 147]", "SIRT1 (Homo sapiens)", "A (EC1.5<1.0 uM)"),
    ("O=C(Nc1ncnc2ccc(-c3cccc(C(F)(F)F)c3)nc12)c1cccc(C(F)(F)F)c1 [Compound 258]", "SIRT1 (Homo sapiens)", "C (EC1.5>25 uM)"),
    ("O=C(Nc1cccc2ccc(-c3cc(F)cc(C(F)(F)F)c3)nc12)c1cnccn1 [Compound 156]", "SIRT1 (Homo sapiens)", "C (EC1.5>25 uM)"),
    ("O=C(Nc1cccnc1)c1cccc2ccc(-c3ccnc(C(F)F)c3)nc12 [Compound 305]", "SIRT1 (Homo sapiens)", "A (EC1.5<1.0 uM)"),
    ("O=C(Nc1cccnc1Cl)c1cccc2ccc(-c3cccc(C(F)(F)F)c3)nc12 [Compound 57]", "SIRT1 (Homo sapiens)", "B (EC1.5 1-25 uM)"),
    ("CN(C)Cc1cccc(-c2ccc3cccc(NC(=O)c4cscn4)c3n2)c1 [Compound 122]", "SIRT1 (Homo sapiens)", "A (EC1.5<1.0 uM)"),
    ("O=C(Nc1ncc(CN2CCCC2)s1)c1cccc2ccc(-c3cccnc3)nc12 [Compound 218]", "SIRT1 (Homo sapiens)", "B (EC1.5 1-25 uM)"),
    ("O=C(Nc1ccncn1)c1cccc2ccc(-c3cccc(N4CCOCC4)c3)nc12 [Compound 111]", "SIRT1 (Homo sapiens)", "A (EC1.5<1.0 uM)"),
    ("Cc1cc(-c2ccc3cccc(C(=O)Nc4nccs4)c3n2)ccn1 [Compound 223]", "SIRT1 (Homo sapiens)", "C (EC1.5>25 uM)"),
    ("O=S(=O)(Nc1nccs1)Nc1cccc2ccc(-c3cccc(OC(F)(F)F)c3)nc12 [Compound 113]", "SIRT1 (Homo sapiens)", "C (EC1.5>25 uM)"),
    ("O=C(Nc1cccc(OCC(O)CO)c1)c1cccc2ccc(-c3cccc(C(F)(F)F)c3)nc12 (stereo not shown) [Compound 151]", "SIRT1 (Homo sapiens)", "A (EC1.5<1.0 uM)"),
    ("Cc1cccc(-c2ccc3cccc(NC(=O)c4cscn4)c3n2)c1 [Compound 79]", "SIRT1 (Homo sapiens)", "A (EC1.5<1.0 uM)"),
    ("O=C(Nc1ncnc2ccc(-c3cccc(C(F)(F)F)c3)nc12)c1cncs1 [Compound 300]", "SIRT1 (Homo sapiens)", "B (EC1.5 1-25 uM)"),
    ("Cc1cccc(NC(=O)c2cccc3ccc(-c4cccc(N5CCOCC5)c4)nc23)n1 [Compound 268]", "SIRT1 (Homo sapiens)", "A (EC1.5<1.0 uM)"),
    ("O=C(Nc1cccc(OCC(O)CO)c1)c1cccc2ccc(-c3cccc(OC(F)(F)F)c3)nc12 (stereo not shown) [Compound 152]", "SIRT1 (Homo sapiens)", "A (EC1.5<1.0 uM)"),
    ("O=C(Nc1cnccn1)c1cccc2ccc(-c3cccc(N4CCOCC4)c3)nc12 [Compound 279]", "SIRT1 (Homo sapiens)", "A (EC1.5<1.0 uM)"),
    ("O=C(Nc1cccc2ccc(-c3cccc(OC(F)(F)F)c3)nc12)c1ccccc1F [Compound 20]", "SIRT1 (Homo sapiens)", "C (EC1.5>25 uM)"),
    ("O=C(Nc1nccs1)c1cccc2ccc(-c3ccccc3)nc12 [Compound 12]", "SIRT1 (Homo sapiens)", "A (EC1.5<1.0 uM)"),
    ("O=C(Nc1ccncn1)c1cccc2ncc(-c3cccc(OC(F)(F)F)c3)nc12 [Compound 128]", "SIRT1 (Homo sapiens)", "C (EC1.5>25 uM)"),
    ("O=C(Nc1cccc2ccc(-c3cccc(C(F)(F)F)c3)nc12)c1cncs1 [Compound 220]", "SIRT1 (Homo sapiens)", "A (EC1.5<1.0 uM)"),
    ("O=C(Nc1ccccn1)c1cccc2cc(C(F)(F)F)c(-c3ccccc3)nc12 [Compound 184]", "SIRT1 (Homo sapiens)", "C (EC1.5>25 uM)"),
    ("O=C(Nc1ccccn1)c1cccc2ccc(-c3ccc(C(F)(F)F)cc3)nc12 [Compound 97]", "SIRT1 (Homo sapiens)", "C (EC1.5>25 uM)"),
]

Where do these numbers come from? They come from patent US8685970B2.
